# procedure.summary: Nonenzymatic decomposition / stability of NADP-dihydrofinasteride adduct
# Format: physicochemical
# study.conditions: 0.1m mops, pH 7.2, 235 nM, 0.1M MOPS, pH 7.2; read-out: completion at infinite time, by heating at 100° C.
observable: degraded at 0.235 µM (%)
Report as a plain number; the unit % is understood.

Short answer for CC(C)(C)NC(=O)[C@H]1CC[C@H]2[C@@H]3CC[C@H]4NC(=O)C(C5C=CN([C@@H]6O[C@H](COP(=O)(O)OP(=O)(O)OC[C@H]7O[C@@H](n8cnc9c(N)ncnc98)[C@H](OP(=O)(O)O)[C@@H]7O)[C@@H](O)[C@H]6O)C=C5C(N)=O)C[C@]4(C)[C@H]3CC[C@]12C (stereo partly shown) [NADP-dihydrofinasteride adduct] : degraded at 0.235 µM was 75.3
